Cited source for all entries: paper PMC10866072

Test system: LOX IMVI
Assay type: cell-based
Conditions: Homo sapiens, one dose 10^-5 M, 48 h, read-out: % growth
Each entry below lists one item and its recorded activity at 10 µM value.
Show the value, then the unit it is measured in.

SMILES | PARAMETER_MEASURED | REPORTED_VALUE
CN(C)c1ccc(-c2nc(S)nc(N)c2C(=N)NN=Cc2ccc(Cl)cc2)cc1 | activity at 10 µM | 103%
Nc1nc(S)nc(-c2ccc(Cl)cc2Cl)c1-c1ncn[nH]1 | activity at 10 µM | 104%
Nc1nc(S)nc(-c2ccc(Cl)cc2)c1-c1ncn[nH]1 | activity at 10 µM | 99.2%
CN(C)c1ccc(-c2cc([N+](=O)[O-])ccc2C=NNC(=N)c2cnc(S)nc2N)cc1 | activity at 10 µM | 99.3%
CN(C)c1ccc(-c2nc(S)nc(N)c2C(=N)NN=Cc2ccc(Cl)cc2Cl)cc1 | activity at 10 µM | 83.3%
CN(C)c1ccc(-c2nc(S)nc(N)c2C#N)cc1 | activity at 10 µM | 85.6%
COc1ccc(/C=N\NC(=N)c2c(N)nc(S)nc2-c2ccc(N(C)C)cc2)cc1 | activity at 10 µM | 101%
N=C(NN=Cc1ccc(Cl)cc1)c1c(N)nc(S)nc1-c1ccc(Cl)cc1 | activity at 10 µM | 94.3%

From here, focus on the item given below.
Prompt: Give activity at 10 µM (LOX IMVI) of the following compound: "N=C(NN=Cc1ccc(Cl)cc1Cl)c1c(N)nc(S)nc1-c1ccc(Cl)cc1"
Completion: 69.4%
